TEST READOUT: melting point

                                    molecule       observed
 0                C#CCOCCn1cnc2cnc3ccccc3c21  124 to 126 °C
 1                       O=C1NCCc2c(O)cccc21  195 to 198 °C
 2     N#Cc1cc(S(=O)(=O)c2ccc(N)cc2)cc(Br)n1  186 to 188 °C
 3       O=C1Nc2ncccc2CN1C1CCN(Cc2ccccc2)CC1         187 °C
 4   O=C(CCc1cc(-c2ccccc2)nc2ccccc12)N1CCCC1         116 °C
 5              Cc1nc2n(C)nc(C)n2c(=O)c1CCCl         140 °C
 6             CN1CCC(C#N)(c2ccc(Cl)cc2F)CC1    85 to 87 °C
 7                    O=C1NCCN1Cc1ccc(Cl)cc1  164 to 166 °C
 8  Cc1cc(C)c(Nc2nc(C)ccc2S(=O)(=O)c2ccc(OCc3cccc(C#N)c3)cc2)c(C)c1  155 to 158 °C
 9                   COc1cccc(C#Cc2ccccc2)c1          70 °C
10  O=C(N[C@H](Cc1ccc(C(F)(F)F)cc1)[C@@H](O)c1cccc(F)c1)c1cccc2c1C=CCCC2 (racemic)  151 to 152 °C

====

# key: entry, value: melting point
TEST READOUT: melting point

>>> df
                                    compound       observed
 0        O=C(NCCc1ccccc1)c1ccc(N2CCOCC2)nc1  163 to 165 °C
 1  COc1cccc(NC(=O)C(C#N)C(=O)c2nn(-c3ccccc3)c3c2Cc2ccccc2-3)c1 (stereo unspecified)  280 to 284 °C
 2  COCCNc1ccc(CN2CCN(C(c3ccccc3)c3ccccc3)CC2)cc1[N+](=O)[O-]        97.2 °C
 3  O=C1Nc2ccccc2C(c2ccccc2)N1CCO (stereo unspecified)         141 °C
 4  COc1c(N2CCNC(CF)C2)c(F)cc2c(=O)c(C(=O)O)cn([C@@H]3C[C@@H]3F)c12 (stereo partly specified)  153 to 156 °C
 5            Cc1cc(-c2ccc(C(=N)NO)o2)ccc1Br         239 °C
 6              CNC(=O)c1cc(N)cc(N2CCOCC2)c1  201 to 204 °C
 7  O=C(O)c1ccc(CCc2ccc(NC(=O)C3CSc4ccccc4C3=O)cc2)cc1 (stereo unspecified)  256 to 259 °C
 8  CCOC(=O)CN[C@@H](c1ccccc1)[C@H](O)c1ccccc1  126 to 127 °C
 9  CCOP(=O)(CCc1ccnc(-c2nc(=O)c3ccccc3s2)c1)OCC  102 to 103 °C
10     Cc1ccc(-c2c(Cl)nc3ncnn3c2NC2CCCC2)cc1         158 °C
11        O=c1cc(-c2cccc(F)c2)oc(N2CCOCC2)c1  169 to 170 °C
12                  O=C(O)CNC(=O)CCCc1ccccc1   99 to 101 °C
13  COc1ccc(C(=O)Nc2c(Cl)cncc2Cl)c2c1oc1ccccc12         302 °C
14    CCOC(=O)c1ccnnc1NC(=O)Cc1c(F)cc(F)cc1F         135 °C
15  CCOc1cc([C@@H](CCN(O)C=O)N2C(=O)c3cccc(NC(C)=O)c3C2=O)ccc1OC    96 to 98 °C
16  CCOC(=O)N1CCc2[nH]cc3c(=O)n(-c4ccccc4)nc-3c2C1  236 to 238 °C
17                        O=C(O)C(=O)c1ccoc1        94.2 °C
18  N#Cc1cccc(C2=Nc3cc(N4CCC5(CC4)OCCO5)c(-c4ccccc4F)cc3NC(=O)C2)c1         253 °C
19  Cc1oc(-c2ccccc2)nc1CCOc1ccc(C[C@H](NC(=O)C=Cc2cccc(Cl)c2)C(=O)O)cc1  204 to 206 °C
20                  O=C1C=C(NCc2ccccc2I)CCN1  163 to 164 °C

====

Below, each entry is listed with its recorded melting point.
TEST READOUT: melting point

                                   compound   test_readout       observed
0  CNC(=S)Nc1ccc(Oc2sc(C(N)=O)c3c2-c2c(cnn2C)CC3)cc1  melting point  199 to 201 °C
1           O=C1NC(=O)c2c3ccccc3cc3cccc1c23  melting point         310 °C
2                         Cc1nnnn1CCCC(=O)O  melting point  71 to 72.5 °C
3  COc1ccc(C)cc1NC(=O)Nc1ccc(C2=CCN(C(=O)Nc3ccc(OCCO)cc3Cl)CC2)cc1  melting point  117 to 120 °C
4  O=C1C(=Cc2ccccc2)CCCC1c1ccccc1 (stereo not given)  melting point    75 to 78 °C
5  CCOCn1nccc1C(=O)c1ccc(OCC(=O)O)c(Cl)c1Cl  melting point  148 to 149 °C
6  Cc1ccc(S(=O)(=O)N2[C@@H](CCc3ncnn3C)CC[C@H]2c2ccc(F)cc2)cc1 (racemic)  melting point         145 °C
7  CCc1cc2c3c(ccc2[nH]1)OCC(CN1CC=C(c2c[nH]c4ccc(F)cc24)CC1)O3 (stereo not given)  melting point    81 to 82 °C
8  COc1cc(/C(C#N)=C/c2ccc(Cl)c([N+](=O)[O-])c2)cc(OC)c1OC  melting point  198 to 199 °C
9                      Cc1cc(CCCCC(=O)O)no1  melting point    58 to 60 °C

====

TEST READOUT: melting point

                                   compound   test_readout       observed
0  COc1cc(Cl)ccc1NC(=O)C1CCCn2c1nc(-c1ccncn1)cc2=O (stereo not given)  melting point  251 to 253 °C
1  OCCCN1CCN2c3ccccc3Cc3ccccc3C2C1 (stereo not given)  melting point  127 to 128 °C
2  CO[C@](C)(c1cc(F)cc(OCc2ccc3ccccc3c2)c1)[C@H](C)O (racemic)  melting point    62 to 63 °C
3    CCCc1cc2c(c3ccc(O)cc13)OCc1cc(O)ccc1-2  melting point    86 to 95 °C
4      C=C(C(=O)O)c1ccc2c(=O)c3ccccc3ccc2c1  melting point  232 to 235 °C
5  O=C1Nc2cc(C(F)(F)F)ccc2C1(O)c1cc(Cl)ccc1O (stereo not given)  melting point  198 to 200 °C
6     COc1ccnc(CSc2nc3cc(F)c(F)cc3[nH]2)c1C  melting point  216 to 218 °C
7    CN[C@@H]1COc2ccc(Cl)c(-c3ccccc3Cl)c2O1  melting point         105 °C
8          Cc1cccc(-c2nc(C(C)(C)C)n(C)n2)n1  melting point         106 °C
9  COc1ccc(C2C=C3CCN(C)CC3C(CO)C2CO)cc1 (stereo not given)  melting point  169 to 171 °C

====

Item-by-item account of melting point
TEST READOUT: melting point

                                   compound       observed
0          CCOc1cc2ncc(NCc3ccccc3)nc2cc1OCC         136 °C
1  Cc1cc(C(=O)N2CCC3(CC2)CSC2=C(O3)c3ccccc3C(=O)C2=O)nn1C  184 to 185 °C
2  O=C(O)c1ncn2c1[C@@H]1CCN1C(=O)c1c-2ccc(F)c1Cl  225 to 226 °C
3  Clc1cccc(N2CCC3CCc4cnccc4C3=N2)c1 (stereo not given)  152 to 155 °C
4  Cc1cc(NS(=O)(=O)c2cccc(S(=O)(=O)Nc3cc(C)c(S(=O)(=O)C[N+](=O)[O-])c(C)c3)c2)cc(C)c1S(=O)(=O)C[N+](=O)[O-]  191 to 192 °C

====

TEST READOUT: melting point

                                   molecule       observed
0  NC(=O)CNC(=O)c1ccnc(-c2cccc3cc(Cc4cccc(C(F)(F)F)c4)sc23)c1F  169 to 170 °C
1  O=C(Nc1ccccn1)c1c(C(F)(F)F)nc2c(C(F)(F)F)cccc2c1O         236 °C
2    CC1(C)CCCC(C)(C)N1c1nc(NCCO)nc(NCCO)n1  147 to 148 °C
3   CN(C)C=C1C(=O)N(c2cccc(C#N)c2)c2ccccc21  140 to 143 °C
4                Ic1ccc2c(c1)Cc1cc(I)ccc1-2  203 to 207 °C
5  Cc1ccc(-c2c(C)ccn2-c2ccc(S(C)(=O)=O)cc2)cc1  158 to 160 °C
6  Cc1oc(-c2ccccc2)nc1CCC(=O)c1ccc(CC2OC(=O)NC2=O)cc1 (centres undefined)  198 to 200 °C
7  CC1CCN(Cc2cc(COc3cccc4c3CN(C3CCC(=O)NC3=O)C4=O)on2)CC1 (centres undefined)  168 to 170 °C
8  O=C(O)/C=C/c1cn(-c2cc(C(F)(F)F)cc(C(F)(F)F)c2)nc1-c1cccc(Cl)c1  217 to 221 °C
